Values from PubChem BioAssay AID2305

- Tested on: P. falciparum 3D7 growth, pLDH absorbance
- Method Summary: blood-stage malaria parasite growth potency – strain 3D7, dose response (AID 2305)
Flag rule - IC50 less than 400 nM flags MET; the remaining entries get NOT MET.

Lookup: Quick check: IC50 of `O=c1c(Br)c(C(F)(F)F)[nH]c2ccc(Oc3ccccc3)cc12` under 400 nM?
Found: NOT MET

Lookup: Quick check: IC50 of `CN(CCCNCc1cccc2ccccc12)CCCNCc1cccc2ccccc12` under 400 nM?
Found: NOT MET

Lookup: Quick check: IC50 of `Cc1cccc2[nH]c(-c3ccc(-c4ccc(NC(=O)Nc5ccc(Cl)cc5)cc4)s3)nc12` under 400 nM?
Found: MET

Lookup: Quick check: IC50 of `CC(C)NCc1cccc(-c2cccc(-c3nc4ccc(F)cc4[nH]3)c2)c1` under 400 nM?
Found: MET

Lookup: Quick check: IC50 of `COc1cc(-n2c(CN3CCCC3)nc3cc(-c4ccc(Cl)cc4)sc3c2=O)ccc1OCCN1CCCC1` under 400 nM?
Found: NOT MET

Lookup: Quick check: IC50 of O=C(c1cccs1)N1N=C(c2cccs2)CC1c1cccc([N+](=O)[O-])c1 (stereo not given) under 400 nM?
Found: NOT MET

Lookup: Quick check: IC50 of `COc1ccc2nccc([C@@H](O)CN3CCC(NC(=O)c4ccc(-c5ccccc5)s4)CC3)c2c1` under 400 nM?
Found: MET

Lookup: Quick check: IC50 of `Cc1nc(N)nc(N)c1CCCOc1ccccc1Br` under 400 nM?
Found: NOT MET

Lookup: Quick check: IC50 of `CN(C)c1ccc2nc(N)nc(N)c2c1Cl` under 400 nM?
Found: NOT MET

Lookup: Quick check: IC50 of O=C(NC1CCCCN(Cc2ccccc2O)C1)c1ccc(Cl)c(Cl)c1 (stereo not given) under 400 nM?
Found: NOT MET
